Sourced from patent US20050209278A1

# targetOrSystem: MMP-2 (Homo sapiens, UniProt P08253)
# Construct: made in house; host or cells: MMP-2-transfected p2AHT2 cells
# testDescription: In vitro MMP inhibition, Ki determination (fluorogenic substrate II)
# Type: biochemical
# recordedConditions: value outside parentheses; read-out: MMP-2 Ki
Please map values of Ki to classes as shown: category 1 = under 0.8 nM, category 2 = from 0.8 nM up to 2 nM, category 3 = 2 nM and over

CCC(F)(F)CCc1ccc(C2CCN(S(=O)(=O)C3(C(=O)NO)CCOCC3)CC2)cn1	category 3
O=C(NO)C1(S(=O)(=O)N2CCC(c3ccc(OCc4ccccc4)cn3)CC2)CCOCC1	category 2
O=C(NO)C1(S(=O)(=O)N2CCN(c3ccc(OCCCC(F)(F)F)cc3)CC2)CC(O)C1 (stereo not shown)	category 3
COC(=O)c1ccc(N2CCN(S(=O)(=O)C3(C(=O)NO)CCOCC3)CC2)cc1	category 2
CCN1CCC(C(=O)NO)(S(=O)(=O)N2CCN(c3ccc(-c4ccccc4)c(F)c3)CC2)CC1	category 2

Qu. Lab note: which band did CCCCOc1ccc(N2CCN(S(=O)(=O)C3(C(=O)NO)CCN(C(=O)CC(F)(F)F)CC3)CC2)cc1 land in?
Ans. category 2

Qu. Lab note: which band did CCCCOc1ccc(N2CCN(S(=O)(=O)C3(C(=O)NO)CCN(C=O)CC3)CC2)cc1 land in?
Ans. category 1

Qu. Lab note: which band did N#Cc1ccc(-c2cnc(N3CCN(S(=O)(=O)C4(C(=O)NO)CCOCC4)CC3)s2)cc1 land in?
Ans. category 1

Qu. Lab note: which band did CC(C)(C)c1ccc(-c2cnc(N3CCN(S(=O)(=O)C4(C(=O)NO)CCOCC4)CC3)s2)cc1 land in?
Ans. category 3

Qu. Lab note: which band did Cc1ccccc1-c1cnc(N2CCN(S(=O)(=O)C3(C(=O)NO)CCOCC3)CC2)s1 land in?
Ans. category 3

Qu. Lab note: which band did CC(C)c1ccc(-c2cnc(N3CCN(S(=O)(=O)C4(C(=O)NO)CCOCC4)CC3)s2)cc1 land in?
Ans. category 1

Qu. Lab note: which band did CCCCCc1ccc(-c2cnc(N3CCN(S(=O)(=O)C4(C(=O)NO)CCOCC4)CC3)s2)cc1 land in?
Ans. category 2

Qu. Lab note: which band did CCCCOc1ccc(N2CCN(S(=O)(=O)C3(C(=O)NO)CCN(C(C)=O)CC3)CC2)cc1 land in?
Ans. category 1

----------
# targetOrSystem: MMP-2 (Homo sapiens, UniProt P08253)
# Construct: made in house; host or cells: MMP-2-transfected p2AHT2 cells
# Sequence (P08253 110-660): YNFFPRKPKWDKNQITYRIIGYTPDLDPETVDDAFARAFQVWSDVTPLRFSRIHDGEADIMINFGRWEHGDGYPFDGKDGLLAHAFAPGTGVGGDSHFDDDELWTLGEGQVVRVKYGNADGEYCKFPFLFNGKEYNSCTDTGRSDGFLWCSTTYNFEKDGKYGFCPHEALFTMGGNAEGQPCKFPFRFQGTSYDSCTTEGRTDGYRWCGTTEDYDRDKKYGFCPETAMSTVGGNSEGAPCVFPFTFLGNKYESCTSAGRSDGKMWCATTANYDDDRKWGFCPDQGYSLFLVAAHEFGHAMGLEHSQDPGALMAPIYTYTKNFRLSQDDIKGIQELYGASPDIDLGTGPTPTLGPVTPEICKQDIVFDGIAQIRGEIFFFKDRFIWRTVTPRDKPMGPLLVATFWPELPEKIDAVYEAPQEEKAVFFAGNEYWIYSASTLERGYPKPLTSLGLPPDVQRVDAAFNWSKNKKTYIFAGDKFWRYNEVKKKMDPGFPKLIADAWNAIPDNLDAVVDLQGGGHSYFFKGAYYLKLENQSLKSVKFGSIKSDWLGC
# testDescription: In vitro MMP inhibition, Ki determination (fluorogenic substrate II)
# Format: biochemical
# recordedConditions: human recombinant enzyme; 4 μM substrate II; room temperature, 1 hr; read-out: MMP-2 Ki
# Method: Several hydroxamic acids and salts thereof were analyzed in in vitro assays to determine their ability to inhibit the MMP cleavage of peptide substrates. […] and IC50 constants were calculated from the assayed hydroxamic acid-MMP interactions. […] The assays from which the Ki determinations were made were performed as follows. […] In the absence of MMP inhibitory activity, substrate II was cleaved at the Gly-Leu bond resulting in an increase of relative fluorescence. […]
Where a name gives a salt, the structure may show the parent alone.
Threshold-based label: Ki under 0.6 nM gives y, Ki not under 0.6 nM gives n.

Qu. Please let me know if CCCCc1ccc(C2CCN(S(=O)(=O)C3(C(=O)NO)CCOCC3)CC2)s1 shows Ki below 0.6 nM.
Ans. n

Qu. Please let me know if O=C(NO)C1(S(=O)(=O)N2CCN(c3ccc(CCC(F)(F)C(F)(F)F)cc3)CC2)CCOCC1 [Example 17, Hydrochloride] shows Ki below 0.6 nM.
Ans. y

Qu. Please let me know if CCCCc1ccc(N2CCN(S(=O)(=O)C3(C(=O)NO)CCN(CCOC)CC3)CC2)cc1 [Example 5, Dihydrochloride] shows Ki below 0.6 nM.
Ans. n

Qu. Please let me know if CCCCCc1ccc(C2CCN(S(=O)(=O)C3(C(=O)NO)CCN(CCOC)CC3)CC2)cc1 [Example 15, Hydrochloride] shows Ki below 0.6 nM.
Ans. n

Qu. Please let me know if O=C(NO)C1(S(=O)(=O)N2CCN(c3ccc(OCC(F)(F)F)cc3)CC2)CCOCC1 [Example 2, Hydrochloride] shows Ki below 0.6 nM.
Ans. n

Qu. Please let me know if CCCCCc1ccc(N2CCN(S(=O)(=O)C3(C(=O)NO)CCN(CCOC)CC3)CC2)cc1F [Example 13, Dihydrochloride] shows Ki below 0.6 nM.
Ans. y
